Molecular target: Endothelin-1 receptor (Rattus norvegicus)
Sequence (P26684 whole entry): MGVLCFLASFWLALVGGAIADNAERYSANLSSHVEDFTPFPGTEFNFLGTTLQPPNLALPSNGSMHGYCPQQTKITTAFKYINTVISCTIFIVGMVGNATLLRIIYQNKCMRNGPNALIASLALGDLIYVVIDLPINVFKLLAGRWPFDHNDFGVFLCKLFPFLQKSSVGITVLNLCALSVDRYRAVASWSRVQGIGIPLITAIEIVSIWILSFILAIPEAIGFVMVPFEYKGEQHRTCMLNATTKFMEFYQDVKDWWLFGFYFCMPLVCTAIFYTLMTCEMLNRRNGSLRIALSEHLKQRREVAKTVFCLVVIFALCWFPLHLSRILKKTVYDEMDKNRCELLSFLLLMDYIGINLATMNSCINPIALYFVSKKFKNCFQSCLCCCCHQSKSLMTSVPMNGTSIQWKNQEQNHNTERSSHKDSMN
pIC50: −log10 of the molar value.
Listing of pIC50 toward Endothelin-1 receptor (Rattus norvegicus), each taken from a published source.
MEASUREMENT TYPE: pIC50

Here's what some known entries look like.
*Q* Dear colleague, please send me the reported pIC50 for "CC(=O)Nc1cccc2ccc(S(=O)(=O)Nc3onc(C)c3C)cc12" when you can.
*A* 4.56

*Q* Indicate the recorded pIC50 value for this compound: "COc1ccc(C(=O)/C(Cc2ccccc2)=C(\C(=O)O)c2ccc3c(c2)OCO3)cc1"
*A* 8.13

*Q* Input "Cc1noc(NS(=O)(=O)c2ccc3cc(N)ccc3c2)c1C" , output reported pIC50.
*A* 6.22

*Q* Query pIC50 for "COc1ccc(C(=O)/C(Cc2cc(OC)c(OC)c(OC)c2)=C(\C(=O)O)c2ccc3nsnc3c2)cc1Cl"
*A* 9.00

*Q* Tell me pIC50 reported for "CC(=O)Nc1ccc(S(=O)(=O)Nc2onc(C)c2C)c2ccccc12"
*A* 5.47

1: Cc1noc(NS(=O)(=O)c2cccc3c(N(C)C(C)C)cccc23)c1C
2: COc1cc(Cn2nc(-c3ccccc3)c(Cc3cc4c(cc3Cl)OCO4)c2C(=O)O)cc(OC)c1
3: COc1ccc(C(=O)/C(Cc2cc(OC)c(OC)c(OC)c2)=C(\C(=O)[O-])c2ccc3nsnc3c2)cc1F.[Na+]
*Q* Falling order of pIC50, please. When ranking, write the labels in the order the request describes.
*A* 3, 1, 2
(3: 10.49, 1: 8.40, 2: 7.55)

A: CC(=O)Nc1ccc2ccc(S(=O)(=O)Nc3onc(C)c3C)cc2c1
B: Cc1noc(NS(=O)(=O)c2cccc3cc(N)ccc23)c1C
*Q* Just curious, which one has the larger pIC50 reading, A or B ? // return label of chosen record
*A* B

I: Cc1noc(NS(=O)(=O)c2ccc3ccc(N)cc3c2)c1C
II: O=C(O)COc1ccccc1Cn1nc(-c2cccs2)c(Cc2cc3c(cc2Cl)OCO3)c1C(=O)O
III: CCCOc1ccc2c(c1)c(-c1ccc(OC)cc1)c(C(=O)O)n2Cc1ccc2nsnc2c1
*Q* Order the items by recorded pIC50; the first position goes to the largest value. Sort and list the labels as requested.
*A* II, III, I
(II: 7.55, III: 6.68, I: 5.00)

a: O=C(O)c1c(Cc2cc3c(cc2Cl)OCO3)c(-c2ccccc2)nn1CC1CCC(C(=O)O)CC1 (stereo not given)
b: CCC(CC)Cn1nc(-c2ccccc2)c(Cc2cc3c(cc2Cl)OCO3)c1C(=O)O
c: O=C(O)c1cc(Cn2nc(-c3ccccc3)c(Cc3cc4c(cc3Cl)OCO4)c2C(=O)O)on1
*Q* // ascending sort on recorded pIC50 Returns: the labels arranged in the requested order.
*A* c, b, a
(c: 7.10, b: 7.82, a: 8.31)

1: Cc1noc(NS(=O)(=O)c2cccc3c(N(C)C)cccc23)c1C
2: CCCOc1ccc2c(c1)c(-c1ccc(OC)cc1)c(C(=O)O)n2Cc1cc2nsnc2cc1C
*Q* Problem: Given the entries 1 and 2 , determine which has the lower reported pIC50. In your reply, give the label of the chosen option.
*A* 2
(2: 6.80, 1: 7.82)

I: Cc1noc(NS(=O)(=O)c2cccc3ccc(N)cc23)c1C
II: CC(=O)Nc1cccc2c(S(=O)(=O)Nc3noc(C)c3C)cccc12
*Q* Compare I and II by numeric pIC50 and name the larger one. Pick one and reply with its label.
*A* II
